biological target: Fuc(a1-2)[Gal(a1-4)]Gal(b1-4)GlcNAc; assay: glycan array binding signal (z-score within array); higher = stronger binding; conditions: glycan notation: IUPAC condensed, linker removed
The entries come from a sample that favours the strongest signals as a whole.
OBSERVED_PROPERTY: glycan array binding signal (z-score)
API note: the answer field is a bare number with no unit suffix.

Lookup: What does the record list as glycan array binding signal (z-score) for F17bG (Escherichia coli), Q47200 (protein) MTNFYKVFLAVFILVCCNISHAVVSFIGSTENDVGPSQGSYSSTHAMDNLPFVYNTGYNIGYQNANVWRIGGGFCVGLDGKVDLPVVGSLDGQSIYGLTEEVGLLIWMGDTNYSRGTAMSGNSWENVFSGWCVGNYLSTQGLSVHVRPVILKRNSSAQYSVQKTSIGSIRMRPYNGSSAGSVQTTVNFSLNPFTLNDTVTSCRLLTPSAVNVSLAAISAGQLPSSGDEVVAGTTSLKLQCDAGVTVWATLTDATTPSNRSDILTLTGASTATGVGLRIYKNTDSTPLKFGPDSPVKGNENQWQLSTGTETSPSVRLYVKYVNTGEGINPGTVNGISTFTFSYQ ?
Found: -0.657
